molecular target: ~100 representative kinases (Homo sapiens); construct: Recombinant protein kinase domains with a concentration of 2 μM; experiment: DSF 100 kinase selectivity screen; type: binding; settings: protein PIM3; average of three replicates;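 also: compound tested at 20 µM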
Catalogue of dTm readings, one per entry.
Give the quantity in K, number only.

O=C(Nc1ccc(Cl)cc1)C1(C(=O)Nc2cccc(-c3c[nH]c4ncnc(N5CCOCC5)c34)c2)CC1 [Compound 13]: 1.90
O=C(Nc1cccc(-c2c[nH]c3ncnc(N4CCOCC4)c23)c1)C1(C(=O)Nc2ccc(F)cc2F)CC1 [Compound 23]: -0.33
COc1ccc(NC(=O)C2(C(=O)Nc3cccc(-c4c[nH]c5ncnc(N6CCOCC6)c45)c3)CC2)cc1 [Compound 16]: 0.23
COc1cc(NC(=O)C2(C(=O)Nc3cccc(-c4c[nH]c5ncnc(N6CCOCC6)c45)c3)CC2)ccc1F [Compound 21]: -0.0363
O=C(Nc1cccc(-c2c[nH]c3ncnc(N4CCOCC4)c23)c1)C1(C(=O)Nc2ccc(F)c(Br)c2)CC1 [Compound 19]: -0.34

Exercise: Name the recorded dTm for Cc1ccc(-n2nc(C(C)(C)C)cc2NC(=O)Nc2cccc(-c3c[nH]c4nc(Cl)nc(N5CCOCC5)c34)c2)cc1 [Compound 30] .
Key: -1.11

Exercise: Consider the compound CC(C)(C)c1cccc(NC(=O)C2(C(=O)Nc3cccc(-c4c[nH]c5ncnc(N6CCOCC6)c45)c3)CC2)c1 [Compound 22] and give its measured dTm.
Key: -1.29
